// data source = paper PMC9482650

# TARGET: T1, SNTA1, Q13424
# T1 sequence (Q13424 82-180, limits assumed, looked up): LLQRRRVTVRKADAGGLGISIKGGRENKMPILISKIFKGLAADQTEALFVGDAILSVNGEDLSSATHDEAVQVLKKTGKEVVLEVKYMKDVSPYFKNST
# ASSAY NOTES: holdup assay
# Set-up: key: below the threshold = too weak to quantify, mostly under pKd 3.1 to 4
# ASSAY SETUP: plain residues with an end cap or a label only (N-terminal biotin on a linker: ttds)
MEASUREMENT TYPE: pKd

PRVKPQRSKV [PPP1R13L, Q8WUF5] :: below the threshold
FHPLGADSQV [SLC2A1, P11166] :: below the threshold
DKDPHSETAL [TMIGD1, Q6UXZ0] :: 4.07
